meta.source: PubChem BioAssay AID1259407

- Tested on: CCRIS mutagenicity, Ames/micronucleus/aberration tests
- PROTOCOL_DESCRIPTION: CCRIS mutagenicity studies
- CONDITION_DETAILS: Test System: UDS RODENT HEPATOCYTES; Strain/Indicator: THY INCORP (NON-S-PHASE); Metabolic Activation: NONE; Method: AUTORADIOGRAPHY
Calls of active or inactive are those of the source. How the calls were made is not given here.
Outcomes: active, inactive

COMPOUND	SYSTEM_NAME	QUALITATIVE_LABEL
Cc1ccc2ccccc2n1	CCRIS mutagenicity, Ames/micronucleus/aberration tests	inactive
O=C(O)C(F)(F)C(F)(Cl)C(F)(F)C(F)(Cl)C(F)(F)Cl (stereo not given)	CCRIS mutagenicity, Ames/micronucleus/aberration tests	inactive
Cc1ccc(N)c(S(=O)(=O)O)c1	CCRIS mutagenicity, Ames/micronucleus/aberration tests	inactive
Nc1cccc(S(=O)(=O)O)c1	CCRIS mutagenicity, Ames/micronucleus/aberration tests	inactive
Nc1n[nH]c(N)n1	CCRIS mutagenicity, Ames/micronucleus/aberration tests	inactive
O=C1c2ccccc2C(=O)c2c(O)cc(O)cc21	CCRIS mutagenicity, Ames/micronucleus/aberration tests	active
Nc1cc(N)cc(Cl)c1	CCRIS mutagenicity, Ames/micronucleus/aberration tests	active
NC(=O)NO	CCRIS mutagenicity, Ames/micronucleus/aberration tests	active
C[C@@]1(CO)[C@H](O)CC[C@@]2(C)[C@H]1CC[C@H]1C[C@@H]3C[C@@]12CC[C@]3(O)CO	CCRIS mutagenicity, Ames/micronucleus/aberration tests	inactive
O=C1c2cccc(O)c2C(=O)c2c(O)cc(CO)cc21	CCRIS mutagenicity, Ames/micronucleus/aberration tests	active

###

- System: CCRIS mutagenicity, Ames/micronucleus/aberration tests
- PROTOCOL_DESCRIPTION: CCRIS mutagenicity studies
- CONDITION_DETAILS: Test System: AMES SALMONELLA TYPHIMURIUM; Strain/Indicator: TA1535; Metabolic Activation: HAMSTER, LIVER, S-9, AROCLOR 1254; Method: PREINCUBATION
Calls of active or inactive are those of the source. No rule for the calls is given here.
Outcomes: active, inactive

COMPOUND	QUALITATIVE_LABEL
C1CC2OC2CC1C1CO1 (centres undefined)	active
COc1ccc(O)cc1	inactive
CC(O)CO (centres undefined)	inactive
CC1(C)S[C@@H]2[C@H](NC(=O)[C@H](N)c3ccccc3)C(=O)N2[C@H]1C(=O)O	inactive
Oc1cc(Cl)ccc1Cl	inactive
C1O[C@@H]1[C@@H]1CO1	active
C[Si](Cl)Cl	inactive
NC(=O)CCCCC(N)=O	inactive
O=NN1CCCCC1	active

###

- System: CCRIS mutagenicity, Ames/micronucleus/aberration tests
- PROTOCOL_DESCRIPTION: CCRIS mutagenicity studies
- CONDITION_DETAILS: Test System: AMES SALMONELLA TYPHIMURIUM; Strain/Indicator: TA1537; Metabolic Activation: RAT, LIVER, S-9, AROCLOR 1254 (10%); Method: PREINCUBATION
Calls of active or inactive are those of the source. No rule for the calls is given here.
EXPERIMENTAL_ENDPOINT: mutagenic call

COMPOUND	ASSAY_RESULT
Nc1ccc(/C=C/c2ccc(N)c(S(=O)(=O)O)c2)c(S(=O)(=O)O)c1	inactive; negative
Nc1c(Br)cc([N+](=O)[O-])cc1[N+](=O)[O-]	active; positive
O=C(Nc1cccc2c(=O)c3c(ccc4c5cc(NC(=O)c6ccccc6)c6c(=O)c7ccccc7c(=O)c6c5[nH]c43)c(=O)c12)c1ccccc1	inactive; negative
Nc1n[nH]c(N)n1	inactive; negative
O=C1CSC(=S)N1	inactive; negative
CCOC(=O)C1OC1c1ccccc1 (stereo not given)	inactive; negative
CC(C)=CCl	inactive; negative
O=C1OC(=O)c2c(Br)c(Br)c(Br)c(Br)c21	inactive; negative
O=C(O)c1ccccc1-c1c2ccc(=O)cc-2oc2cc(O)ccc12	inactive; negative
NC(N)=NC(N)=NCCc1ccccc1	inactive; negative
CCCCC(CC)COC(=O)CCCCC(=O)O (stereo not given)	inactive; negative
Nc1ccc(O)c(N)c1	inactive; negative
C1CCC(NC2CCCCC2)CC1	inactive; negative
FC(F)(F)C(Cl)Br (stereo not given)	inactive; negative
CCCCCCCCCCCCOCCO	inactive; negative
O=C(OC1CCCCC1)c1ccccc1C(=O)OC1CCCCC1	inactive; negative
O=[N+]([O-])c1ccccc1CCO	inactive; negative
CC(C)(C)N	inactive; negative
O=C(Oc1ccccc1)c1ccccc1O	inactive; negative
FC(Cl)(Cl)Cl	inactive; negative
NC(=O)c1ccccc1C(N)=O	inactive; negative
C[CH2][Hg][S]c1ccccc1C(=O)O	inactive; negative
O=P(Oc1ccccc1)(Oc1ccccc1)Oc1ccccc1	inactive; negative
CC(C)CN	inactive; negative
C=C(C)C(=O)OCC	inactive; negative
CCOC(=O)C1OC1(C)c1ccccc1 (stereo not given)	inactive; negative
OCCN1CN(CCO)CN(CCO)C1	inactive; negative
C=C[Si](OCC)(OCC)OCC	inactive; negative
CCN(CC)CC	inactive; negative
C=CC(=O)OCCCC	inactive; negative
O=c1[nH]c(=O)n(Cl)c(=O)n1Cl	inactive; negative
Cc1ccc(S(=O)(=O)Oc2ccc(N=Nc3ccc(-c4ccc(N=Nc5c(O)ccc6cc(S(=O)(=O)O)cc(S(=O)(=O)O)c56)c(C)c4)cc3C)cc2)cc1	inactive; negative
CCCCC(CC)COC(=O)C(C#N)=C(c1ccccc1)c1ccccc1 (stereo not given)	inactive; negative
CCNc1nc(Cl)nc(NC(C)C)n1	inactive; negative
CCCCOC(=O)c1ccccc1N	inactive; negative
N#CCBr	inactive; negative
c1ccc(N=NNc2ccccc2)cc1	active; positive
O=C(Nc1ccc(Cl)cc1)Nc1ccc(Cl)c(Cl)c1	inactive; negative
O=c1ccc2ccccc2o1	inactive; negative
NCCNCCN	inactive; negative
CCCCC(CC)COP(=O)(Oc1ccccc1)Oc1ccccc1 (stereo not given)	inactive; negative
CC(=O)c1c(=O)cc(C)oc1=O	inactive; negative
COc1cc(-c2ccc(N/N=C3\C(=O)c4c(O)cc(S(=O)(=O)O)cc4C=C3S(=O)(=O)O)c(OC)c2)ccc1N/N=C1\C(=O)c2c(O)cc(S(=O)(=O)O)cc2C=C1S(=O)(=O)O	inactive; negative
O=[N+]([O-])c1cc([As](=O)(O)O)ccc1O	inactive; negative
CCN1CCOCC1	inactive; negative
O=NN1CCCCC1	inactive; negative
COc1ccc(CN(CCN(C)C)c2ncccn2)cc1	inactive; negative
CCOP(=S)(OCC)SCSC(C)(C)C	inactive; negative
CCCCCCCC(=O)O	inactive; negative
COc1cc(OC)c(OC)cc1C=O	inactive; negative

###

- Test system: CCRIS mutagenicity, Ames/micronucleus/aberration tests
- PROTOCOL_DESCRIPTION: CCRIS mutagenicity studies
- CONDITION_DETAILS: Test System: AMES SALMONELLA TYPHIMURIUM; Strain/Indicator: TA1535; Metabolic Activation: HAMSTER, LIVER, S-9, AROCLOR 1254 (10%); Method: PREINCUBATION
- Description: The CCRIS database contains chemical records with carcinogenicity, mutagenicity, tumor promotion, and tumor inhibition test results. It was developed by the National Cancer Institute (NCI). Data are derived from studies cited in primary journals, current awareness tools, NCI reports, and other sources. Test results have been reviewed by experts in carcinogenesis and mutagenesis. CCRIS provides historical information from the years 1985 - 2011. It is no longer updated. […]
Activity calls are given as the source filed them. How the calls were made is not given here.
Outcome codes: Y = active, N = inactive

COMPOUND	QUALITATIVE_LABEL
CCS(=O)CCSP(=O)(OC)OC (configuration not stated)	Y
Nc1ccc(/C=C/c2ccc(N)c(S(=O)(=O)O)c2)c(S(=O)(=O)O)c1	N
CCOC(=O)C1OC1(C)c1ccccc1 (configuration not stated)	N
O=C(OC1CCCCC1)c1ccccc1C(=O)OC1CCCCC1	N
O=[N+]([O-])c1ccccc1CCO	N
c1ccc(N=NNc2ccccc2)cc1	N
CCCCCCCCCCCCOCCO	N

###

- Tested on: CCRIS mutagenicity, Ames/micronucleus/aberration tests
- PROTOCOL_DESCRIPTION: CCRIS mutagenicity studies
- CONDITION_DETAILS: End Point: IN VITRO CHROMOSOMAL ABERRATIONS; Test System: CHINESE HAMSTER OVARY CELLS; Metabolic Activation: NONE
Activity calls are given as the source filed them. No rule for the calls is given here.
Labels: active, inactive

MOLECULE	QUALITATIVE_LABEL
C=CC=O	inactive
ClC1=C(Cl)[C@]2(Cl)[C@@H]3[C@@H]4C[C@@H]([C@H]5O[C@@H]45)[C@@H]3[C@@]1(Cl)C2(Cl)Cl	inactive
CCOC(=O)C1OC1(C)c1ccccc1 (stereo not drawn)	active

###

- System: CCRIS mutagenicity, Ames/micronucleus/aberration tests
- PROTOCOL_DESCRIPTION: CCRIS mutagenicity studies
- CONDITION_DETAILS: Test System: E. COLI; Strain/Indicator: WP2; Metabolic Activation: NONE; Method: STANDARD PLATE
The source made the active and inactive calls. No rule for the calls is given here.
Possible outcomes: active, inactive

COMPOUND	QUALITATIVE_LABEL
CCCCCCCCCCCCOC(=O)CCSCCC(=O)OCCCCCCCCCCCC	inactive
CC(C(=O)O)c1ccc(Oc2nccs2)cc1 (stereo unspecified)	inactive
CC(=O)C1c2cccc(O)c2C(=O)c2c(O)cccc21	inactive
O=S(O)(O)=S	inactive
CN(C)N=O	active
O=CNc1nc(-c2ccc([N+](=O)[O-])o2)cs1	active
O=NO	inactive
CCOS(C)(=O)=O	active
CC(C)=CC1C(C(=O)OCc2coc(Cc3ccccc3)c2)C1(C)C (stereo unspecified)	inactive
CC(=O)O[C@H]1C[C@@H]2C(COC(=O)CC(C)C)=CO[C@@H](OC(=O)CC(C)C)[C@@H]2[C@@]12CO2	inactive
OC[C@@H](O)[C@@H](O)[C@H](O)[C@H](O)CO	inactive
CC(C)=CC1C(C(=O)OCc2cccc(Oc3ccccc3)c2)C1(C)C (stereo unspecified)	inactive
O=C1c2ccccc2C(=O)N1SC(Cl)(Cl)Cl	active
c1ccc(-c2ccccc2)cc1	inactive
O=S(O)S(=O)(=O)O	inactive
O=C1c2c(O)cccc2Cc2cccc(O)c21	inactive
